# measuredOn: 5-HT2B (Homo sapiens)
# Sequence (P41595 whole entry): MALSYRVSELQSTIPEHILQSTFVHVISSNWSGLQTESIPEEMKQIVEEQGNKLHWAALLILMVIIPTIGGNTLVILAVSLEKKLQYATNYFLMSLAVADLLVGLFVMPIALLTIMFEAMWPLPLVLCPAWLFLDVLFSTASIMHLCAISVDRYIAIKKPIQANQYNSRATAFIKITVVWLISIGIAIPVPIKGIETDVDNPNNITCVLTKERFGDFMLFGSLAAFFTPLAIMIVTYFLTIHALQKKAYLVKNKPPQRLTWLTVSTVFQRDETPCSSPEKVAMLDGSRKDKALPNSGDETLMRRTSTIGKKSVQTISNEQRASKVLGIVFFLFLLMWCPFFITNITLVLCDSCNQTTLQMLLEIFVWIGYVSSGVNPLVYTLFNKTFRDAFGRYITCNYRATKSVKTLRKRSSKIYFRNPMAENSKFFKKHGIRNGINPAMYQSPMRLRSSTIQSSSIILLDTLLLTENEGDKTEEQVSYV
# testSummary: cell-based
# Format: cell-based
# Design: expressed in transfected cells; host or cells: HEK293T
# experimentalSetup: HEK293T cells, 1 hour at 37° C.; read-out: IC50 nM 5-HT2 Gq Dissociation BRET assay, 5-HT2B
Where a name gives a salt, the structure may show the parent alone.
Some molecules, each annotated with its measured IC50.
Give the value in nM but do not write nM after it.

// known answers, use as guide
Cn1cc(CCNCC(F)F)c2c(O)cccc21 [Example 22, hydrochloride]
1420
CC(C)N(C)CCc1cn(C)c2cccc(O)c12 [Example 13, hydrochloride]
42.1
CC(C)N(CCc1cn(C)c2cccc(O)c12)C(C)C [Example 14, hydrochloride]
49.1

Challenge: // lookup IC50 for CN(CCc1cn(C)c2cccc(O)c12)CC(F)F [Example 17, hydrochloride]
Response given: 376

Challenge: Now try COc1ccccc1CN(C)CCc1cn(C)c2cccc(O)c12 [Example 25, hydrochloride] .
Response given: 4000

----------
# measuredOn: 5-HT2B (Homo sapiens)
# testSummary: cell-based
# Type: cell-based
# Design: expressed in transfected cells; host or cells: HEK293T
# experimentalSetup: 1 h, read-out: % efficacy vs 5-HT@ 100%, 5-HT2B
Structures can show the parent of a compound that is named as a salt.
resultType: Emax (%)
Give the value in % but do not write % after it.

// known answers, use as guide
CCN(CC)CCc1cn(C)c2cccc(O)c12 [Example 18, hydrochloride]
56
CN(CCc1cn(C)c2cccc(O)c12)CC1CC1 [Example 16, hydrochloride]
19
CN(CCc1cn(C)c2cccc(O)c12)CC(F)F [Example 17, hydrochloride]
24
Cn1cc(CCNCC2CC2)c2c(O)cccc21 [Example 21, hydrochloride]
46

Next molecule, Emax to be filled in.
Challenge: // lookup Emax for CN(C)CCc1cn(C)c2cccc(O)c12
Response given: 40

----------
Some molecules, each annotated with its measured IC50.
# measuredOn: 5-HT2C (Homo sapiens, UniProt P28335)
# Sequence (P28335 33-458): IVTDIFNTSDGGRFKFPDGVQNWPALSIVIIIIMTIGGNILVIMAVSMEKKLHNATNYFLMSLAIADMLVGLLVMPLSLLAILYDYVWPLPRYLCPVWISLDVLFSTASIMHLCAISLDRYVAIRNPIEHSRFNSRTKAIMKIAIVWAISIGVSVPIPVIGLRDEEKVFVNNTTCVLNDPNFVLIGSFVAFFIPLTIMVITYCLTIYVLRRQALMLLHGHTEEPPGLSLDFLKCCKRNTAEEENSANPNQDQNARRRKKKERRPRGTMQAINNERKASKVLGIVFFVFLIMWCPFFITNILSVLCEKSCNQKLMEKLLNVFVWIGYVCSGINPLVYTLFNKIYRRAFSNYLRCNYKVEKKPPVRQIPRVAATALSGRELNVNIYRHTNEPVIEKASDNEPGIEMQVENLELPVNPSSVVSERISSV
# testSummary: cell-based
# Parameters: expressed in transfected cells; host or cells: HEK293T
# experimentalSetup: HEK293T cells, 1 hour at 37° C.; read-out: IC50 nM 5-HT2 Gq Dissociation BRET assay, 5-HT2C
Counter-ions that a name gives are not always drawn.
Give the value in nM but do not write nM after it.

Challenge: // lookup IC50 for CN(C)CCc1cn(CC2CC2)c2cccc(O)c12 [Example 8]
Response given: 0.12

Challenge: Now try COc1ccccc1CNCCc1cn(C)c2cccc(O)c12 [Example 24, hydrochloride] .
Response given: 1.6

Challenge: Now try CC(C)N(CCc1cn(C)c2cccc(O)c12)C(C)C [Example 14, hydrochloride] .
Response given: 393

Challenge: Now try CN(C)CCc1cn(C2COC2)c2cccc(O)c12 [Example 10] .
Response given: 1070

Challenge: Now try Cn1cc(CCNCC(F)F)c2c(O)cccc21 [Example 22, hydrochloride] .
Response given: 1890
